Data credit: paper PMC4407950

Type: in vivo, human
Conditions: human, plasma, oral, tmax, plasma; dolutegravir 50 mg + calcium carbonate 1,200 mg, fed (moderate-fat meal), n = 11; median (range)

>  <smiles_representation>
C[C@@H]1CCO[C@H]2Cn3cc(C(=O)NCc4ccc(F)cc4F)c(=O)c(O)c3C(=O)N12

>  <Tmax / h>
3

$$$$

###

Assay type: in vivo, human
Details: human, plasma, oral, tmax, plasma; dolutegravir 50 mg + ferrous fumarate 324 mg, fed (moderate-fat meal), n = 10; median (range)

>  <compound>
C[C@@H]1CCO[C@H]2Cn3cc(C(=O)NCc4ccc(F)cc4F)c(=O)c(O)c3C(=O)N12 [Dolutegravir]

>  <unit_annotation>
h

>  <Tmax>
3.5

$$$$
